Reported Growth inhibition ratio values follow for various molecules
test system: colon 38 (cancer of the colon of mice); type: in vivo, mice (BDF1, female); settings: 100 mg/kg/day oral, once a day for 8 days; 21 days after transplantation
Use % as the unit, but write only the number.

structure-as-smiles	measurement-kind	result-number
COc1ccc(Nc2ncccc2NS(=O)(=O)c2ccc(OC)cc2)cc1	Growth inhibition ratio	99
COc1ccc(S(=O)(=O)Nc2cccnc2Nc2ccccc2)cc1	Growth inhibition ratio	98
COc1ccc(S(=O)(=O)Nc2cccnc2Nc2ccc(O)cc2)cc1	Growth inhibition ratio	98
Cc1ccc(S(=O)(=O)Nc2cccnc2Nc2ccccc2)cc1	Growth inhibition ratio	80

What does the data say about its Growth inhibition ratio? Entry: CCc1ccc(S(=O)(=O)Nc2cccnc2Nc2ccccc2)cc1 69
